TARGET_SYSTEM: T1, Nluc-IL23R fusion protein (human, UniProt Q5VWK5 22-629)
T1 construct: range 22-629; Stably expressed in HEK293 cells; also called hIL-23R; human IL-23R fused to a Nanoluc luciferase enzyme; not shown: Nanoluc luciferase (Promega N1371 plasmid) at the N-terminus
T1 sequence (looked up): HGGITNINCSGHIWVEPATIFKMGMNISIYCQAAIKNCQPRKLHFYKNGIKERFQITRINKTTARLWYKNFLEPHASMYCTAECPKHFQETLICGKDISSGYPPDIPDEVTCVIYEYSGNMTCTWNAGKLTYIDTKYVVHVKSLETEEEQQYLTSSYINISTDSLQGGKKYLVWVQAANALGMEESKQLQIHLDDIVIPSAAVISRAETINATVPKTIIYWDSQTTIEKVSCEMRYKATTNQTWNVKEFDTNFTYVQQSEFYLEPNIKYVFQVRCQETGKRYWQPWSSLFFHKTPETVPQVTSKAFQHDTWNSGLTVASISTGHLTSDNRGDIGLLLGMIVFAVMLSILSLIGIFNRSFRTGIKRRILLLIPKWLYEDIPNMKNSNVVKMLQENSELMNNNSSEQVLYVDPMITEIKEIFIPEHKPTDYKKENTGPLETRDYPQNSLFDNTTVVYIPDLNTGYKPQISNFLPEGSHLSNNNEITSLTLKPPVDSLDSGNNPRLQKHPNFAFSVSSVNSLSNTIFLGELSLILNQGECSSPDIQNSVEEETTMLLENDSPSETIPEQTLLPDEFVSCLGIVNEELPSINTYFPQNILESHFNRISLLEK
ASSAY_PROTOCOL: BRET displacement of TAMRA-labelled peptide, Nluc-IL23R membranes
*1 amine or outer side, *2 acyl side, *3 side chain or, on linkers, in order; H or OH if unused. Bridges are numbered along the chain shown (N, C = ends). [ ]: non-standard residue; d: D form. 2Nal = N[C@@H](Cc1ccc2ccccc2c1)C(=O)O; CH2COCH2 = O=C(C[*:1])C[*:2]
MEASUREMENT_KIND: pKi
A value of pKi is the negative decimal logarithm of a concentration given in moles per litre.

*Q* Which pKi is reported for this binder? Ac-KSCWQCW[2Nal]LER-NH2 (lactam 1-10; linker 3-6 via CH2COCH2) [Compound 18]
*A* 8.55
